Every entry's value here was drawn from PubChem BioAssay (NCI).

Recorded growth values for a group of molecules are listed next.
- System: IGROV1 ovarian
- assay_overview: NCI-60 one-dose screen, 48 h (100 = growth as untreated, 0 = no growth, -100 = all killed)
- measurement_conditions: 10 µM unless noted
About 83,000 compounds went through this panel and 20% of them were active in at least one assay; those are over-represented in the sample as a whole.
Quick reminder: number only, in %, skip the unit.

Look over these answered cases.
molecule	unit_string	numeric_result
CN1CCN(Cc2ccc(NC(=O)c3nc4ccc5[nH]ncc5c4c4c3CCC4)cc2C(F)(F)F)CC1	%	-80.9
COc1cccc(/C=C2\Oc3cc(OCCCN4CCCC4)ccc3C2=O)c1OC	%	96.1
O=C1CCCCC1(c1ccccc1)c1ccccc1	%	101
COc1ccc(C2C(C#N)=C(N)Oc3c2ccc2ccccc32)cc1 (stereo unspecified)	%	41
CCOC(=O)c1cn2c3c(cc(C)cc3c1=O)C(=O)/C(=C/c1ccccc1)C2	%	93.2
COc1ccc(Cn2cc3c(c2-c2cc(OC)c(OC)c(OC)c2)CCc2cnoc2-3)cc1	%	7.18
C=C[C@@H]1C[C@H](O)Cc2cc(F)ccc2N1	%	131
CC(=O)Nc1ccc(/C=C/C(=O)c2ccccc2)cc1	%	43

Query string: Return reported growth. Input molecule: `CCOC(=O)c1c(NS(=O)(=O)c2ccc(C)cc2)sc2c1CCC1(C2)OCCO1`
Result string: 109

Query string: Determine its reported growth: `COc1ccc(Nc2[nH]n3c(=O)cc(-c4ccccc4)nc3c2C(=O)Nc2ccc(C)cc2)c(OC)c1`
Result string: 102

Query string: Find the measured growth of CN(C)c1nc2c(N)ncnc2n1C1OC(CO)C(O)C1O (stereo unspecified) and report it.
Result string: 111

Query string: In one line, give reported growth of the entry `COc1cc([N+](=O)[O-])c2ncccc2c1O` .
Result string: 51.8

Query string: Recall and state the measured growth for `Clc1cc(Cl)c2nc(-c3ccc(-c4ccc(/C=N/NC5=NCCN5)cc4)s3)cn2c1` .
Result string: 84.3
